Biological target: T1, human interleukin 13 receptor subunit alpha 2 (IL-13RA2) (human, UniProt Q14627 27-380)
T1 sequence (looked up): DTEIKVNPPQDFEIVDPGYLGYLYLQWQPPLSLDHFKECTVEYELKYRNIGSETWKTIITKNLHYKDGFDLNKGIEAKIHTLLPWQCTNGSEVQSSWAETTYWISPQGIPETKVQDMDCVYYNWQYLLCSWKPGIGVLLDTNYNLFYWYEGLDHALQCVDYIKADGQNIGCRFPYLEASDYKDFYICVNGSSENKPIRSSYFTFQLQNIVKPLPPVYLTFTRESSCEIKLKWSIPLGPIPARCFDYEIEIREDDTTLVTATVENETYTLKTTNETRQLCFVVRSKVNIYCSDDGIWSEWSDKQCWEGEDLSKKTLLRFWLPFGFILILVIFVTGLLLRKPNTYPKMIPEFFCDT
Assay: cell-based or functional assay
Experimental readout: internalization EC50 (pHAb dye), CHO-K1/H_IL-13RA2 cells (nM)

[[record]]
binder = "xi51G2B3 hIgG1 (antibody, V domains shown) VH: QVQLQQSGPELVKPGASVKISCKASGYAFSDSWMNWVKQRPGQGLEWIGRIYPGDGDTNYNGKFKGKATLTADKSSNTAYMQLSSLTSVDSAVYFCARSWNGSPWFPYWGQGTLVTVSA VL: DVLMTQTPLSLPVSLGDQASISCRSSQTIAHRNGNTYLEWYLQKPGQSPKLLLYKVSNRFSGVPDRFSGSGSGTDFTLKISRVEAEDLGVYYCFQGSHVTWTFGGGTKLEIK"
measured_result = 1.84

[[record]]
binder = "xi62F6A8 hIgG1 (antibody, V domains shown) VH: QVQIQQSGAELARPGASVMLSCKASGYTFTDYWMQWIKQRPGQGLEGIGAIYPGDGDTAYNQKFRGKATLTADKSSSTAYMQLNSLASEDSAVYFCARGATLLRPFPFWGQGTLVTVSA VL: DIVMTQSHKFMSTSVGDRVSITCKASQDVSTAVAWYQQKPGQSPKLLIYSASYRYAGVPDRFTGSGSGTDFTFTISSVQAEDLAVYSCQQHYSIPPTFGGGTKLEIK"
measured_result = 1.17

[[record]]
binder = "xi61H8C1 hIgG1 (antibody, V domains shown) VH: QVQLQQSGAELARPGASVMLSCKASGYTFTSYWTQWIKQRPGQGLEGIGAIYPGDDDTSYNQKFKGKATLTADKSSSTAYMQLNSLTSEDSAVYYCARGATLLRPFPYWGQGTLVTVSA VL: DIVMTQSHKFMSTSVGDRVSITCKASQDVSTAVAWYQQKPGQSPKLLIYSASYRYTGVPDRFTGSGSGTDFTFTISSVQAEDLAVYSCQQHYSIPPTFGGGTKLEIK"
measured_result = 1.02

[[record]]
binder = "xi24G6D5 hIgG1 (antibody, V domains shown) VH: QVQLQQSGPELVKPGTSVKMSCKASGYTFTSNYIHWVKQRPGQGLEWIGWIYPGDGSIKYNEKFKGKTTLTADKSSSTVYMLLSSLTSEDSAIYFCAVLRRLDYWGQGTTLTVSS VL: DIVLTQSPATLSVTPGDSVSLSCRASQSISNNLHWYQQKSHESPRLLIKYASQSISGIPSRFSGSGSGTDFTLSINSVETEDFGMYFCQQSNSWPLTFGAGTKLELK"
measured_result = 0.86

[[record]]
binder = "xi74B5E4 hIgG1 (antibody, V domains shown) VH: EVKLVESGGGLVKPGGSLRLSCAASGFTFSTYGMSWVRQTPEKRLEWVATISGGGSYTYYPDSVKGRFTISRDNAKNNLYLQMSSLRSEDTALYYCARRDLRSAMDYWGQGTSVTVSS VL: DIVMTQSQKFMSTSVGDRVSVTCKASQNVDINVAWYQQKPGQSPKALIYSASYRYSGVPDRFTGSGSGTDFTLTISNVQSEDLAEYFCQQYNTYPLTFGGGTKLEIK"
measured_result = 0.91

